Assay: Solubility limits of LCA and UDCA in organic solvents
Assay type: physicochemical
Conditions: organic solvent, organic solvent or mixture, thermodynamic from solid, hexane/IPA 8:2 + 0.01% TFA; read-out: solubility limit
measured-endpoint: solubility (µg/mL)

INSERT INTO measurements (compound, measured_endpoint, measured_number) VALUES
  ('C[C@H](CCC(=O)O)[C@H]1CC[C@H]2[C@@H]3[C@@H](O)C[C@@H]4C[C@H](O)CC[C@]4(C)[C@H]3CC[C@]12C [UDCA, ursodeoxycholic acid]', 'solubility', 4000);

###

Assay: Solubility limits of LCA and UDCA in organic solvents
Assay type: physicochemical
Details: organic solvent, organic solvent or mixture, thermodynamic from solid, ethylene glycol; read-out: solubility limit
measured-endpoint: solubility (mg/mL)

INSERT INTO assay_data (chemical_string, measured_number) VALUES
  ('C[C@H](CCC(=O)O)[C@H]1CC[C@H]2[C@@H]3[C@@H](O)C[C@@H]4C[C@H](O)CC[C@]4(C)[C@H]3CC[C@]12C', 16.6);
